All figures here come from ChEMBL document CHEMBL4610063.

Test: Selectivity index, ratio of CC50 for African green monkey Vero cells to IC50 for Herpes simplex virus 1 KOS infected in African green monkey Vero cells
Format: toxicity
Conditions: read-out: Ratio CC50/IC50
Measured Metric: selectivity ratio

smiles_str=O=c1c2cc(O)c(O)cc2oc2cc(O)c([C@@H]3O[C@H](CO)[C@@H](O)[C@H](O)[C@H]3O)c(O)c12 result="> 143"
